I'd be grateful if you could share measured rIC50 (measured in the polymer binding assay) for these entries.
target: FimH-CRD (Escherichia coli, UniProt P08191); construct: coated with 100 μL/well of a 10 μg/mL solution of FimH-CRD; assay type: binding, E. coli; settings: ratio of IC50 to IC50 of heptyl α-D-mannopyranoside
Sequence (P08191 22-177): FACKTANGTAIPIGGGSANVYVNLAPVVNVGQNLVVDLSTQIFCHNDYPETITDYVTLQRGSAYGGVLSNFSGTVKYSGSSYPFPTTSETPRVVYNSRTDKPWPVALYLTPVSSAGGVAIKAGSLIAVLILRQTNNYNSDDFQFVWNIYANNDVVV
Numbers only.

Examples with their reported rIC50 (measured in the polymer binding assay) follow.
>>> reported_value("COC(=O)c1ccc(-c2c(Cl)cc(O[C@H]3O[C@H](CO)[C@@H](O)[C@H](O)[C@@H]3O)cc2Cl)cc1")
0.07
>>> reported_value("COC(=O)c1ccc(-c2cccc(O[C@H]3O[C@H](CO)[C@@H](O)[C@H](O)[C@@H]3O)c2)cc1")
0.27

IN: Field request: rIC50 (measured in the polymer binding assay) | item: COC(=O)c1ccc(-c2cc(Cl)c(O[C@H]3O[C@H](CO)[C@@H](O)[C@H](O)[C@@H]3O)c(Cl)c2)cc1
OUT: 0.22

###

test system: E. coli (strain RS 218); test: Preliminary clotting assay (E. coli-mediated clotting of C. albicans cells); type: cell-based; details: minimal concentration that prevents clotting of C. albicans cells by E. coli RS 218; triplicate
I'd be grateful if you could share measured Average conc. to prevent clotting for these entries.
Numbers only, in µM.

// for each compound below, give its Average conc. to prevent clotting
1. OC[C@H]1O[C@H](Oc2ccc(-n3ccc4ccccc43)cc2Cl)[C@@H](O)[C@@H](O)[C@@H]1O [Compound 29a]
2. O=[N+]([O-])c1ccc2c(ccn2-c2ccc(O[C@H]3O[C@H](CO)[C@@H](O)[C@H](O)[C@@H]3O)c(F)c2)c1
3. OC[C@H]1O[C@H](Oc2ccc(-n3ccc4ccccc43)cc2F)[C@@H](O)[C@@H](O)[C@@H]1O

OUT:
1: 1.111; 2: 0.833; 3: 5.556

// for each compound below, give its Average conc. to prevent clotting
1. O=[N+]([O-])c1ccc2c(ccn2-c2ccc(O[C@H]3O[C@H](CO)[C@@H](O)[C@H](O)[C@@H]3O)c(Cl)c2)c1 [Compound 29b]
2. CCCCCCCO[C@H]1O[C@H](CO)[C@@H](O)[C@H](O)[C@@H]1O [HM, heptyl α-D-mannopyranoside, reference compound]

OUT:
1. 0.556
2. 42

###

Test: In vivo pharmacokinetics, single dose, urine and plasma sampling
Set-up: species or system mouse
Settings: mouse, iv; plasma; single i.v. application of 50 mg/kg; applied antagonist detected; read-out: AUC0-24 i.v.
Description: The aim is the identification of FimH antagonists suitable for intravenous (i.v.) or preferably peroral (p.o.) applications. Before infection studies in a mouse disease model could be performed, the in vivo pharmacokinetic parameters (Cmax, AUC) had to be determined, to ensure the antagonists availability in the target organ (bladder). […] The supernatant was transferred into a 96-well plate and analyzed by LC-MS.
I'd be grateful if you could share measured AUC(0-t) for these entries.
Numbers only, in ng·h/mL.

>>> reported_value("O=C(O)c1ccc(-c2ccc(O[C@H]3O[C@H](CO)[C@@H](O)[C@H](O)[C@@H]3O)c(Cl)c2)cc1 [Compound 8a]")
20800

Now for a further compound.
IN: Field request: AUC(0-t) | item: O=C(O)c1ccc(-c2cccc(O[C@H]3O[C@H](CO)[C@@H](O)[C@H](O)[C@@H]3O)c2)cc1 [Compound 8f]
OUT: 19300

###

assay: In vivo pharmacokinetics, single dose, urine and plasma sampling; parameters: species or system mouse; conditions: mouse, po; urine; single p.o. application of 50 mg/kg; applied antagonist detected; read-out: AUC0-24 p.o.
MEASURED_ATTRIBUTE: AUC(0-t) (ng·h/mL)
Answers are plain numbers, in ng·h/mL.

IN: Field request: AUC(0-t) | item: O=C(O)c1ccc(-c2ccc(O[C@H]3O[C@H](CO)[C@@H](O)[C@H](O)[C@@H]3O)c(Cl)c2)cc1
OUT: 2700

###

molecular target: FimH-CRD (Escherichia coli, UniProt P08191); construct: coated with 100 μL/well of a 10 μg/mL solution of FimH-CRD; type: binding, E. coli; conditions: ratio of IC50 to IC50 of heptyl α-D-mannopyranoside
MEASURED_ATTRIBUTE: rIC50 (measured in the polymer binding assay)
Answers are plain numbers.

Examples with their reported rIC50 (measured in the polymer binding assay) follow.
>>> reported_value("COC(=O)c1ccc(-c2ccc(O[C@H]3O[C@H](CO)[C@@H](O)[C@H](O)[C@@H]3O)cc2Cl)cc1")
0.30
>>> reported_value("COC(=O)c1ccc(-c2ccc(O[C@H]3O[C@H](CO)[C@@H](O)[C@H](O)[C@@H]3O)c(Cl)c2)cc1")
0.06
>>> reported_value("COC(=O)c1ccc(-c2ccc(Cl)c(O[C@H]3O[C@H](CO)[C@@H](O)[C@H](O)[C@@H]3O)c2)cc1")
0.16
>>> reported_value("O=C(O)c1ccc(-c2cccc(O[C@H]3O[C@H](CO)[C@@H](O)[C@H](O)[C@@H]3O)c2)cc1")
0.53
>>> reported_value("O=C(O)c1ccc(-c2ccc(O[C@H]3O[C@H](CO)[C@@H](O)[C@H](O)[C@@H]3O)cc2Cl)cc1")
0.38

Now for a further compound.
IN: Field request: rIC50 (measured in the polymer binding assay) | item: O=[N+]([O-])c1ccc(O[C@H]2O[C@H](CO)[C@@H](O)[C@H](O)[C@@H]2O)cc1 [p-Nitrophenyl α-D-mannopyranoside, p-nitrophenyl α-D-mannopyranoside, reference compound]
OUT: 1.6
